The reported measurements were obtained from patent US3939043A.

Please go through the items and note down their MIC.
# System: Staphylococcus aureus KY 8956
# Experiment Description: In vitro antibacterial spectrum by agar dilution method (pH 8.0)
# Assay type: cell-based
# Applied Conditions: KY8956, Staphylococcus aureus KY 8956 (resistant to Streptomycin, Paromomycin, Tetracycline, Kanamycin, Nebramycin, Tobramycin and Erythromycin), read-out: Minimum Inhibitory Concentration (M.I.C.)
Report the figure in mg/L without appending any unit label.

I am curious: what MIC value has been reported for NCC1OC(OC2C(N)CC(N)C(OC3OCC(O)C(O)C3N)C2O)C(N)C(O)C1O (stereo not shown) ?
5.3

Name the reported MIC value associated with the molecule NCC1CC(O)C(N)C(OC2C(N)CC(N)C(O)C2O)O1 (stereo not shown)
0.09

Report MIC for NC1CC(N)C(OC2OC(CO)C(O)C(O)C2N)C(O)C1OC1OCC(O)C(O)C1N (stereo not shown) please.
208
